# EC50 values compiled below
Target: T1, CD3D (human, UniProt P04234 22-105)
T1 construct: Recombinant human protein in ELISA
T1 sequence (P04234 22-105 limits assumed): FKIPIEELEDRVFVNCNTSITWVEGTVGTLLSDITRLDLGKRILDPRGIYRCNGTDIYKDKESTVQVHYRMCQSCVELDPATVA
Assay: ELISA, plate-coated recombinant human protein, nanobody-Fc
Numeric only. Scale: nM

Here is how some binders turned out for EC50.
1) CD3D_Nb2.33 (Fc fusion, Nanobody expressed and tested as Fc fusion (human IgG1); not shown: human IgG1 Fc (vector pCER243)) QVQLQESGGGLVQAGGSLRLSCAASGSIFYAEYMGWYRQAPGKEREFVAAITAGSTTYYADSVKGRFTISRDNAKNTVYLQMNSLKPEDTAVYYCAADGYYYGIEFTYYEYWGQGTQVTVSS = 8.22
2) CD3D_Nb2.34 (Fc fusion, Nanobody expressed and tested as Fc fusion (human IgG1); not shown: human IgG1 Fc (vector pCER243)) QVQLQESGGGLVQAGGSLRLSCAASGTISTLDYMGWYRQAPGKEREFVAAINYGSNTYYADSVKGRFTISRDNAKNTVYLQMNSLKPEDTAVYYCAAADVTRPAYDYWGQGTQVTVSS = 0.575
3) CD3D_Nb2.36 (Fc fusion, Nanobody expressed and tested as Fc fusion (human IgG1); not shown: human IgG1 Fc (vector pCER243)) QVQLQESGGGLVQAGGSLRLSCAASGSISAYWAMGWYRQAPGKEREFVAAINFGANTYYADSVKGRFTISRDNAKNTVYLQMNSLKPEDTAVYYCAAERDGDYHDYWGQGTQVTVSS = 29.6

Turning to the following binder.
Note to self: EC50 recorded for CD3D_Nb2.35 (Fc fusion, Nanobody expressed and tested as Fc fusion (human IgG1); not shown: human IgG1 Fc (vector pCER243)) QVQLQESGGGLVQAGGSLRLSCAASGTIFAYWYMGWYRQAPGKEREFVAAIGDGSSTYYADSVKGRFTISRDNAKNTVYLQMNSLKPEDTAVYYCAAEAPGYGHTYWGQGTQVTVSS was 1.72
